- System: 186277-243-T-J2-PDC complex spheroid growth;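 further: luminescent signal used as a stand-in for viable cell amount; spheroids exposed to compounds for seven days before the viability read; 100% = DMSO vehicle control wells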
- assayDetails: Anticancer human tumor 186277-243-T-J2-PDC patient-derived colon adenocarcinoma cell line growth inhibition [AhR]
- assaySetup: second compound 3.16 µM; first compound 1 µM; active compounds read low
valueKind: viability, T/C (%)
Please state the figure in %; there is no need to write the unit.

Exercise: Given the compound O=C(C=Cc1cccc(S(=O)(=O)Nc2ccccc2)c1)NO + Cc1ccccc1N=Nc1ccc(NC(=O)c2ccnn2C)c(C)c1 , what is its reported viability, T/C?
Key: 74.5

Exercise: Same question, CC1(C)CCC(CN2CCN(c3ccc(C(=O)NS(=O)(=O)c4ccc(NCC5CCOCC5)c([N+](=O)[O-])c4)c(Oc4cnc5[nH]ccc5c4)c3)CC2)=C(c2ccc(Cl)cc2)C1 + CC(CO)NC(=O)c1cc(-c2ccc(Cl)cc2)nn(-c2cnn(C)c2)c1=O this time
Key: 94.2

Exercise: Queued: COc1cc(C2c3cc4c(cc3C(OC3OC5COC(C)OC5C(O)C3O)C3COC(=O)C23)OCO4)cc(OC)c1O (stereo not given) + Cc1cncc(-c2nc(NCCc3c[nH]c4ccccc34)c3ncn(C(C)C)c3n2)c1
Key: 59.4

Exercise: Proceed to CC1COCCN1c1cc(C2(S(C)(=N)=O)CC2)nc(-c2ccnc3[nH]ccc23)n1 (stereo not given) + CC(CO)NC(=O)c1cc(-c2ccc(Cl)cc2)nn(-c2cnn(C)c2)c1=O
Key: 41

Exercise: // same read-out, input: CC1COCCN1c1cc(-c2ccnn2C)c2ccnc(-c3ccn[nH]3)c2n1 (stereo not given) + Cc1cncc(-c2nc(NCCc3c[nH]c4ccccc34)c3ncn(C(C)C)c3n2)c1
Key: 5.27

Numbers sourced from PubChem BioAssay AID1918991.
